# EC50 per entry
target: T1, human LILRB2 expressed on cells (293T-LILRB2, CHO-K1-LILRB2) (human, UniProt Q8N423 22-597); assay: flow cytometry, blockade of His-tagged HLA-G tetramer binding to 293T-LILRB2 cells; fit table under the graph, row headed EC50
T1 construct: whole, on cells; the cell line is named under assay; also called HEK293T-LILRB2
T1 sequence (Q8N423 22-597): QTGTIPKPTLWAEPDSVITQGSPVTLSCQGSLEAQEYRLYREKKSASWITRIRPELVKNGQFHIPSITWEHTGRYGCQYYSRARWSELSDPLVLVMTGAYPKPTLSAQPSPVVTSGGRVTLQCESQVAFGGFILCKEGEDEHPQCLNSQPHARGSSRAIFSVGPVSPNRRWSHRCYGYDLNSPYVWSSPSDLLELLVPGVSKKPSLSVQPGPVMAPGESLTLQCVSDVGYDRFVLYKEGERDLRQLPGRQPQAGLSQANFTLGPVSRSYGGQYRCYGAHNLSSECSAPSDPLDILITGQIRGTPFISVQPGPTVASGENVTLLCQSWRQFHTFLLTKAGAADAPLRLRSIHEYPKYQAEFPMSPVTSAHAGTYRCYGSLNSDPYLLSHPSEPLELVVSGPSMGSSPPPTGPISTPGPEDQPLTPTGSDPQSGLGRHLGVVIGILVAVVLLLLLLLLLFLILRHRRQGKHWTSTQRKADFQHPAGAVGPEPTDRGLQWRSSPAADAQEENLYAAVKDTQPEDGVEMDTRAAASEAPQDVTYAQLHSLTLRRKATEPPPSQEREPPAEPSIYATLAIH
Provide only the numeric value, understood in nM.

Known results for binders:
binder: Antibody h#2E2 (antibody, V domains shown, Humanized variant of 11B12) VH: EVQLVESGGGLVQPGGSLRLSCAVSGYSITSGYYWNWIRQAPGKGLEWVAYISYDGNNNYNPSLKNRFTISRDTSKNTVYLQMNSLRAEDTAVYYCAREESTMITTAWFAYWGQGTLVTVSS VL: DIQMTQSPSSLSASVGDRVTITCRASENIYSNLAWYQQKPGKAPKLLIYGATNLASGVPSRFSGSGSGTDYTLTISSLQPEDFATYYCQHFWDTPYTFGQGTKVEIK
unitOfMeasure: nM
EC50: 0.389
//
binder: Antibody h#2B1 (antibody, V domains shown, Humanized variant of 11B12) VH: EVQLVESGGGLVQPGGSLRLSCAVSGYSITSGYYWNWIRQAPGKGLEWVAYISYDGNNNYNPSLKNRFTISRDASKNTVYLQMNSLRAEDTAVYYCAREESTMITTAWFAYWGQGTLVTVSS VL: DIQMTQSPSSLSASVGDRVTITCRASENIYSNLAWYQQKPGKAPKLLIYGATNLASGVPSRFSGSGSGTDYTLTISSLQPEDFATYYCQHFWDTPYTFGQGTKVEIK
unitOfMeasure: nM
EC50: 0.219
//
binder: Antibody h#2E1 (antibody, V domains shown, Humanized variant of 11B12; detected with anti-human IgG) VH: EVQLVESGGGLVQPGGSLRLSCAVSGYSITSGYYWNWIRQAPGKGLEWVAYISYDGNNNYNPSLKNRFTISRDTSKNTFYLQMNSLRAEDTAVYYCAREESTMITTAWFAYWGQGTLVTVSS VL: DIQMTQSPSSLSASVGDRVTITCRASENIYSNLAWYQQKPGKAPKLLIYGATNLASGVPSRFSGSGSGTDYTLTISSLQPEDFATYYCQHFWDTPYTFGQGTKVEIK
unitOfMeasure: nM
EC50: 0.163

Now for the binder whose EC50 we want.
Give the measured EC50 for Antibody h#2D2 (antibody, V domains shown, Humanized variant of 11B12) VH: EVQLVESGGGLVQPGGSLRLSCAVSGYSITSGYYWNWIRQAPGKGLEWVAYISYDGNNNYNPSLKNRFTISRDASKNTFYLQMNSLRAEDTAVYYCAREESTMITTAWFAYWGQGTLVTVSS VL: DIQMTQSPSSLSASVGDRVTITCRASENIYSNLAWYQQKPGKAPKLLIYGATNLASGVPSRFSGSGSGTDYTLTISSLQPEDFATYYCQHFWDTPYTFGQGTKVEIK 0.131
